# protocolNotes: Cmax in Sprague-Dawley rat at 5 mg/kg, po or 1 mg/kg, iv
# Assay type: ADME, organism-based
# particulars: in vivo
observedProperty: Cmax (ng/mL)
# unit: ng/mL | format: bare number

Study these solved cases before continuing.
Complete the entry with Cmax for C[C@H]1OC(=O)[C@]2(NCC(=O)O)C[C@@H]3CCCC[C@H]3[C@H](/C=C/c3ccc(-c4cccc(F)c4)cn3)[C@H]12 1140

Give Cmax for Cc1ccnc(N[C@@H]2CC[C@@H]3[C@@H](C2)C[C@H]2C(=O)O[C@H](C)[C@H]2[C@H]3/C=C/c2ccc(-c3cccc(F)c3)cn2)n1 110

Look up and report measured Cmax for this entry: C[C@H]1OC(=O)[C@]2(NCC#N)C[C@@H]3CCCC[C@H]3[C@H](/C=C/c3ccc(-c4cccc(F)c4)cn3)[C@H]12 2310

For CCOC(=O)N[C@@H]1CC[C@@H]2[C@@H](C1)C[C@H]1C(=O)O[C@H](C)[C@H]1[C@H]2/C=C/c1ccc(-c2cccc(F)c2)cn1 [VORAPAXAR] , write its Cmax. 440

Provide measured Cmax value, entry: CCOC(=O)N[C@@H]1CC[C@@H]2[C@@H](C1)C[C@H]1C(=O)O[C@H](C)[C@H]1[C@H]2/C=C/c1ccc(-c2ccccn2)cc1 710

Next:
Please report Cmax for the following compound: C[C@H]1OC(=O)[C@@H]2C[C@@H]3C[C@H](NCC#N)CC[C@H]3[C@H](/C=C/c3ccc(-c4cccc(F)c4)cn3)[C@H]12 580

###

# experimentalTarget: Proteinase-activated receptor 1 (Homo sapiens) (UniProt P25116)
# Sequence (P25116 whole entry): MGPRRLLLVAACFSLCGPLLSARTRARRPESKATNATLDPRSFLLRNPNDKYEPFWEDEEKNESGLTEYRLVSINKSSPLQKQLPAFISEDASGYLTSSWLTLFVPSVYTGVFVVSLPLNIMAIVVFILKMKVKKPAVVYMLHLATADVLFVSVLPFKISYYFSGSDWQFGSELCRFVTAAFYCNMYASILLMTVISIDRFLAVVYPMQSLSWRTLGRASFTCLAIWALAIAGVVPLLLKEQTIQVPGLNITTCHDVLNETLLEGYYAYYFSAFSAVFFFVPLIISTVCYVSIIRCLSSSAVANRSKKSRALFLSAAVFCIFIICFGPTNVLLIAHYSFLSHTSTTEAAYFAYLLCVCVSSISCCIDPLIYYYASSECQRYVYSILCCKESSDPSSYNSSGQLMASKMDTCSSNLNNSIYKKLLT
# protocolNotes: Antagonist activity at human PAR1 expressed in KNRK cells assessed as inhibition of agonist-induced intracellular calcium mobilization at 10^-6 M by fluorimetric assay relative to control
# Assay type: functional, cell-based
Measured inhibition, listed per entry.
Hi! Could you send only the number? It should be in %, unit omitted.

Examples with their reported inhibition follow.
Write down inhibition measured for item Cc1ccnc(N[C@@H]2CC[C@@H]3[C@@H](C2)C[C@H]2C(=O)O[C@H](C)[C@H]2[C@H]3/C=C/c2ccc(-c3cccc(F)c3)cn2)n1 98

Consider the compound CCOC(=O)CN[C@@]12C[C@@H]3CCCC[C@H]3[C@H](/C=C/c3ccc(-c4cccc(F)c4)cn3)[C@@H]1[C@@H](C)OC2=O and give its recorded inhibition. 81

Supply measured inhibition of CCOC(=O)N[C@@H]1CC[C@@H]2[C@@H](C1)C[C@H]1C(=O)O[C@H](C)[C@H]1[C@H]2/C=C/c1ccc(-c2cccc(F)c2)cn1 [VORAPAXAR] in your reply. 99

For the next question, use this compound.
Query inhibition for C[C@H]1OC(=O)[C@]2(NCC#N)C[C@@H]3CCCC[C@H]3[C@H](/C=C/c3ccc(-c4cccc(F)c4)cn3)[C@H]12 92

###

# protocolNotes: Oral bioavailability in Sprague-Dawley rat at 5 mg/kg
# Type: ADME, organism-based
# particulars: in vivo
observedProperty: bioavailability (%)
Form entry: value (%) — number only.

In one line, give reported bioavailability of the entry CCOC(=O)N[C@@H]1CC[C@@H]2[C@@H](C1)C[C@H]1C(=O)O[C@H](C)[C@H]1[C@H]2/C=C/c1ccc(-c2cccc(F)c2)cn1 . 94

Write down bioavailability measured for item C[C@H]1OC(=O)[C@]2(NCC(=O)O)C[C@@H]3CCCC[C@H]3[C@H](/C=C/c3ccc(-c4cccc(F)c4)cn3)[C@H]12 70

Identify measured bioavailability corresponding to CCOC(=O)N[C@@H]1CC[C@@H]2[C@@H](C1)C[C@H]1C(=O)O[C@H](C)[C@H]1[C@H]2/C=C/c1ccc(-c2ccccn2)cc1 44

Specify measured bioavailability for C[C@H]1OC(=O)[C@@H]2C[C@@H]3C[C@H](NCC#N)CC[C@H]3[C@H](/C=C/c3ccc(-c4cccc(F)c4)cn3)[C@H]12 . 98

# return recorded bioavailability for input C[C@H]1OC(=O)[C@]2(NCC#N)C[C@@H]3CCCC[C@H]3[C@H](/C=C/c3ccc(-c4cccc(F)c4)cn3)[C@H]12 34

Further cases:
Consider the compound Cc1ccnc(N[C@@H]2CC[C@@H]3[C@@H](C2)C[C@H]2C(=O)O[C@H](C)[C@H]2[C@H]3/C=C/c2ccc(-c3cccc(F)c3)cn2)n1 . State its measured bioavailability. 23
